test system: RXF 393 renal; experiment: NCI tumour cell line growth inhibition, 48 h
Where a SMILES comes first, the peptide text is derived from it. The star is where a group is joined. Fmoc = O=C(OCC1c2ccccc2-c2ccccc21)*; Boc = CC(C)(C)OC(=O)*
Below is a list of entries, each paired with its recorded TGI value.

compound	experimentalTarget	TGI
O=C(COC(=O)c1cccc2c(=O)c3ccccc3[nH]c12)Nc1ccc(C(=O)O)cc1	RXF 393 renal	> 100 µM
COC(=O)/C=C/C1(O)C=CC(=O)C=C1	RXF 393 renal	> 25.1 µM
CC(C)(C)OC(=O)NCCCCC(NC(=O)C(Cc1c[nH]c2ccccc12)NC(=O)OCC1c2ccccc2-c2ccccc21)C(=O)N1CCCC1C(=O)NCC(N)=O (centres undefined) (Fmoc-WK(Boc)PG-NH2; configuration not given here)	RXF 393 renal	> 100 µM
COc1cc(-c2[o+]c3cc(O)cc(O)c3cc2O)cc(O)c1O	RXF 393 renal	> 100 µM

###

test system: HOP-92 NSCLC; test: NCI tumour cell line growth inhibition, 48 h
Where a SMILES comes first, the peptide text is derived from it. The star is where a group is joined. Fmoc = O=C(OCC1c2ccccc2-c2ccccc21)*; Boc = CC(C)(C)OC(=O)*
measuredAttribute: TGI

molecule	measuredAttribute	obsValue
CCN(CC)Cc1c(/C=C\c2cc(OC)c(OC)c(OC)c2)ccc(OC)c1O	TGI	> 100 µM
O=c1[nH]c(=O)n(C2OC(CO)C(O)C2O)cc1Oc1ccccc1 (stereo not given)	TGI	> 100 µM
COC(=O)[C@H](CC(C)C)Nc1c(O)c2c(c(O)c1Cl)C(=O)C=CC2=O	TGI	> 10 µM
CC(C)(C)OC(=O)NCCCCC(NC(=O)C(Cc1c[nH]c2ccccc12)NC(=O)OCC1c2ccccc2-c2ccccc21)C(=O)N1CCCC1C(=O)NCC(N)=O (stereo not given) (Fmoc-WK(Boc)PG-NH2; configuration not given here)	TGI	> 100 µM
O=C(COC(=O)c1cccc2c(=O)c3ccccc3[nH]c12)Nc1ccc(C(=O)O)cc1	TGI	> 100 µM
Cc1ccc(S(=O)OCC23CC4CC(CC(C4)C2)C3)cc1 (stereo not given)	TGI	> 100 µM
O=C(O)c1ccc(C(=O)O)c(C(=O)Nc2ccc3c(c2)C(=O)c2ccccc2-3)c1	TGI	> 100 µM
COc1cccc(NC(=O)C(=O)C(C(=O)c2ccccc2F)C2OC(=O)c3ccccc32)c1 (stereo not given)	TGI	> 100 µM
FC(F)(Sc1ncc[nH]1)c1nc2ccccc2o1	TGI	> 100 µM
Cn1cc(C2=C(c3cn(C)c4ccccc34)C(=O)NC2=O)c2ccccc21	TGI	> 7.23 µM

###

system: RXF 393 renal; assay: NCI tumour cell line growth inhibition, 48 h

compound	TGI
CN1CCN(C)C12C=CC=CC21CC1	> 100 µM
CN(c1cn(C2CC[C@@H](CO)O2)c(=O)[nH]c1=O)C1CCCCC1 (stereo partly drawn)	> 100 µM
COC(=O)C(Cc1nc2ccccc2nc1C)/C(=N\NC(N)=O)C(=O)Nc1cccc([N+](=O)[O-])c1 (stereo not drawn)	> 100 µM

###

system: KM20L2 colon; test: NCI tumour cell line growth inhibition, 48 h
measuredAttribute: TGI

compound	experimentalTarget	obsValue
CC#CC1C2CCCC1(CSc1ccccc1)NC(=O)O2 (stereo not drawn)	KM20L2 colon	> 100 µM
CC(=O)NC1C(OCc2ccccc2)OC(COC(=O)CCCCCCCCCCNc2ccc([N+](=O)[O-])c3[nH]c4ccccc4c(=O)c23)C(O)C1OC(C)C(=O)NC(C)C(=O)NC(CCC(N)=O)C(=O)OCc1ccccc1 (stereo not drawn)	KM20L2 colon	> 100 µM
OCc1c[te]c(-c2ccccc2)c1	KM20L2 colon	> 100 µM

###

Below is a list of entries, each paired with its recorded TGI value.
tested on: SW-620 colon; test: NCI tumour cell line growth inhibition, 48 h
measuredAttribute: TGI

molecule	measuredAttribute	obsValue
O=C1OCC2=C1C(c1ccc(Cl)c(Cl)c1)c1cc3c(cc1N2CCO)CCC3 (configuration not stated)	TGI	10.7 µM
COc1cc(C2C(Cl)C(=O)N2NC(=O)c2ccc(N)cc2)cc(Br)c1O (configuration not stated)	TGI	35.1 µM
Cc1ccc(NC(=O)c2sc3nc4c(cc3c2N)C(=O)CCC4)cc1C	TGI	> 100 µM
CC#CC1C2CCCC1(CSc1ccccc1)NC(=O)O2 (configuration not stated)	TGI	> 100 µM
Cc1ccc(Cl)c(Nc2ccccc2C(=O)O)c1Cl	TGI	> 100 µM
CC(C)(C)c1cc2c(O)c(c1)Cc1cc(C(C)(C)C)cc(c1O)Cc1cc(C(C)(C)C)cc(c1O)Cc1cc(C(C)(C)C)cc(c1O)Cc1cc(C(C)(C)C)cc(c1O)Cc1cc(C(C)(C)C)cc(c1O)Cc1cc(C(C)(C)C)cc(c1O)Cc1cc(C(C)(C)C)cc(c1O)C2	TGI	> 50 µM
Cc1c2ccncc2c(C)c2c1[nH]c1ccc(OCC(F)(F)F)cc12	TGI	1.99 µM
COc1cc2c(cc1OCCCCOc1cc3c(cc1OC)C(=O)N1CCC[C@H]1C(=O)N3)N=C[C@@H]1CCCN1C2=O	TGI	14.6 µM
COc1ccc(C(=O)/C=C/c2ccc(OCCSCCCCCCCCCCSCCOc3ccc(/C=C/C(=O)c4ccc(OC)c(OC)c4)cc3)cc2)cc1OC	TGI	> 100 µM
CCOC(=O)c1c2c(c(O)c3ccccc3c(O)n(Cc3ccccc3)c1C)C(=O)C=CC2=O	TGI	> 100 µM
COC(=O)C1=C(C)C=C(N2CCOCC2)C(C(=O)OC)C1c1ccccc1 (configuration not stated)	TGI	> 10 µM
Nc1nc2c(ncn2Cc2ccccc2CO)c(=O)[nH]1	TGI	> 100 µM

###

test system: SF-295 CNS; assay: NCI tumour cell line growth inhibition, 48 h

compound	TGI
Clc1ccc(-c2c(C3=NCCCN3)nnn2-c2ccccc2)cc1	> 100 µM
CC(=O)N1N=C2/C(=C/c3ccc(Cl)cc3)CC(C)CC2C1c1ccc(Cl)cc1 (stereo not drawn)	> 100 µM
COc1ccc(C(=O)/C=C/c2ccc(OCCSCCCCCCCCCCSCCOc3ccc(/C=C/C(=O)c4ccc(OC)c(OC)c4)cc3)cc2)cc1OC	> 100 µM

###

system: HCT-116 colon; test: NCI tumour cell line growth inhibition, 48 h
measuredAttribute: GI50

smi	obsValue
COc1ccc2nc3cc(Cl)ccc3c(Sc3ccc([N+](=O)[O-])cc3)c2c1	> 100000 nM
Cc1ccc(C)c(/C=C2\CN(C(=O)OC(C)(C)C)C/C(=C\c3cc(C)ccc3C)C2=O)c1	1430 nM
CC(=O)Oc1ccc(/C(=C(\C)c2ccc(Cl)cc2)c2ccc(OCCN3CCCCC3)cc2)cc1	1340 nM
COc1ccc(-n2ccnc2-c2cc(OC)c(OC)c(OC)c2)cc1	3900 nM
Clc1ccc(-c2cc(-c3ccccc3)nc(NCCNc3ccnc4cc(Cl)ccc34)n2)cc1	1650 nM
Cn1cc(C2=C(c3cn(C)c4ccccc34)C(=O)NC2=O)c2ccccc21	1170 nM
Cc1ccc(NC(=O)c2sc3nc4c(cc3c2N)C(=O)CCC4)cc1C	546 nM

###

tested on: RPMI-8226 leukemia; experiment: NCI tumour cell line growth inhibition, 48 h
Below is a list of entries, each paired with its recorded TGI value.

compound	TGI
COc1cc2c(cc1OC)C1Cc3cc(OC)c(OC)cc3C(C2)N1C	> 100 µM
CN1CN(c2ccccc2)C2(CCN(CCC3COc4ccccc4O3)CC2)C1=O (stereo not drawn)	42.7 µM
CC(=O)C1=C(C)N(c2ccc(C)cc2)C2(O)C3=C(C(=O)c4ccccc4C3=O)C(O)=CC12Cl (stereo not drawn)	> 100 µM

###

test system: MDA-MB-435; experiment: NCI tumour cell line growth inhibition, 48 h
*1 amine or outer side, *2 acyl side, *3 side chain or, on linkers, in order; H or OH if unused. Where a SMILES comes first, the peptide text is derived from it. [ ]: non-standard residue; d: D form. The star is where a group is joined. X31 = CC(=O)N(C)SCC(N[*:1])C(=O)[*:2]; Cbz = O=C(OCc1ccccc1)*; Bn = c1ccc(C*)cc1

compound	TGI
O=C1c2cc([N+](=O)[O-])ccc2-c2ccc3c4ccc5c6c(ccc(c7ccc1c2c73)c64)C(=O)c1cc([N+](=O)[O-])ccc1-5	> 100 µM
O=c1[nH]c(=O)n(C2OC(CO)C(O)C2O)cc1Oc1ccccc1 (stereo not drawn)	> 100 µM
CC(=O)N(C)SCC(NC(=O)C(Cc1ccccc1)NC(=O)OCc1ccccc1)C(=O)NC(Cc1ccccc1)C(=O)NC(Cc1c[nH]c2ccccc12)C(=O)NC(CCCCNC(=O)OCc1ccccc1)C(=O)NC(C(=O)NC(CSN(C)C(C)=O)C(=O)NC(C(N)=O)C(C)OCc1ccccc1)C(C)OCc1ccccc1 (stereo not drawn) (Cbz-F[X31]FWK(Cbz)T(Bn)[X31]T(Bn)-NH2; configuration not given here)	> 100 µM
CC(=O)Nc1nnc(S(C)(=O)=O)s1	> 100 µM
FC(F)(Sc1ncc[nH]1)c1nc2ccccc2o1	> 100 µM
O=c1ssc(Cl)c1Cl	> 10 µM
O=C(C/C(=N/O)c1cc(-c2ccccc2)no1)c1ccccc1	> 100 µM
CC(=O)Nc1ccc(COC(O)CN2CCCCC2)cc1[N+](=O)[O-] (stereo not drawn)	> 100 µM
